Biological target: pooled human IgG
experimental_readout: Enzyme Activity Endpoint Assay (purified): Fab′2 (ng/µL)

[
  {
    "protein": "PRT-665 (protein) MQITSVWTKGVTPPTPEQFRYNNEDVIHAPYLAHQGWYDITKAFDGKDNLLCGAATAGNMLHWWFDQNKTEIEAYLSKYPEKQKIIFNNQELFDLRAAINTKDSQTNSQLFNYFRDKAFPNLSARQLGVMPDLVLDMFINGYYLNVFKTQSTDVNRPYQDKDKRGGIFDAVFTRGDQTTLLTARHDLSNKGLNDISTIIKQELTEGRALALSHTYANVSISHVINLWGADFNAEGNLEAIYVTDSDSNASIGMKKYYVGINASGHVAISAKKIEGEVIGAQVLGLFTLSSGKEIWQKLSLEHHHHHH",
    "unit_abbrev": "ng/µL",
    "measurement": 816
  }
]
